src = PubChem BioAssay (NCI)

System: RXF 393 renal
measurement.description: NCI tumour cell line growth inhibition, 48 h; in the data active = GI50 below about 0.43 µM; inactive = the rest
Give one outcome, nothing more. List: active, inactive

Query string: // return assay outcome for CC(=O)OCC(CC[CH2][Sn]([Cl])([Cl])[c]1ccccc1)OC(C)=O (stereo not drawn)
Result string: inactive

Query string: For O=C(O)CCCc1ccccc1 , which call appears in the assay record?
Result string: inactive

Query string: What did this assay record as the result for Nc1nc2ccccc2c2c1S(=O)(=O)c1ccc(Cl)cc1C2=O ?
Result string: inactive

Query string: Any idea what this test logged for C/C(=N\NC(=S)N1CCN(c2ccccn2)CC1)c1ncccn1 ?
Result string: inactive

###

Test system: DU-145 prostate
measurement.description: NCI tumour cell line growth inhibition, 48 h
Entries and their measured GI50 follow.

The examples below pair each entry with its known result.
{"compound": "CCn1ccnc1C(=O)/C=C/c1ccc(CC(=O)Nc2ccc(F)cc2)cc1", "quantity": "GI50", "observed.result": "4.45 µM"}
{"compound": "NCc1ccc(-c2nc(-c3ccc(Cl)c(O)c3)c(-c3ccncc3)[nH]2)cc1", "quantity": "GI50", "observed.result": "> 25 µM"}
{"compound": "COc1cc2c(cc1NC(=O)C(Cl)Cl)-c1ccc(NC(=O)C(Cl)Cl)cc1C2", "quantity": "GI50", "observed.result": "0.265 µM"}

Query string: # input compound: N#CC1C(N)=NNC12Nc1ccccc1S2 (stereo not given) ; wanted: its GI50
Result string: 15.6 µM

Query string: // GI50 lookup, key: C=CC(=O)N[C@@H](/C=C/C(=O)OCC)Cc1ccc(-c2cc(Cl)cc(Cl)c2)cc1
Result string: 12.9 µM

Query string: So what does the record say about GI50 for Clc1ccc([I+]c2ccc(Cl)cc2Cl)c(Cl)c1 ?
Result string: 1.92 µM

Query string: Which GI50 is listed for N#Cc1cc2c(cc1Cl)Sc1nnc(Nc3cccc4ccccc34)n1S2(=O)=O ?
Result string: 3.66 µM

Query string: Param item = COc1ccc2nc3cc(Cl)ccc3c(N3CCN(c4ccnc(N5CCN(C)CC5)n4)CC3)c2c1 ; retrieve measured GI50.
Result string: 1.84 µM

Query string: Which GI50 is reported for this compound? Nc1nc(-c2ccc(Cl)cc2)nc2c1sc(=S)n2-c1ccccc1
Result string: 4.36 µM

Query string: // lookup GI50 for C=CCN(CC=C)C(=O)[C@H](CC)[C@@H]1CC[C@@H](C)[C@@H]([C@H](C)[C@@H](O)[C@@H](C)C(=O)[C@H](CC)C2O[C@]3(C=C[C@@H](O)[C@]4(CC[C@@](C)([C@H]5CC[C@](O)(CC)[C@H](C)O5)O4)O3)[C@H](C)C[C@@H]2C)O1 (stereo not given in full)
Result string: 2.46 µM
